# Tested target: QT2 (QT2–4 single-site variant, only motif QT2 intact) (Drosophila) (UniProt Q9VZU1)
# Test name: ITC; LC8 (400–500 µM) in the syringe titrated into QT variant (20–50 µM) in the cell; 25 °C; 50 mM sodium phosphate, 50 mM NaCl, 1 mM sodium azide, 5 mM β-mercaptoethanol, pH 7.5; single set of sites fit, for double-site variants also sequential binding sites (SBS) and two sets of sites (TSS) fits

Binder: Drosophila LC8 (natural protein, LC8 hub protein (dynein light chain LC8) of Drosophila; folds as a homodimer; tag cleaved by TEV protease; also called LC8 dimer; source: E. coli Rosetta (DE3), purified (TALON, anion exchange, Superdex 75 gel filtration)) MSDRKAVIKNADMSEEMQQDAVDCATQALEKYNIEKDIAAYIKKEFDKKYNPTWHCIVGRNFGSYVTHETRHFIYFYLGQVAILLFKSG
Kd / µM: 9.3
